Test system: U251 CNS
Experiment: NCI-60 one-dose screen, 48 h
Conditions: 10 µM unless noted
About 83,000 compounds went through this panel and 20% of them were active in at least one assay; those are over-represented in the sample as a whole. Calls of active or inactive are those of the source. Rule for the calls: active = growth percent below 10; inactive = the rest.
Your answer must be one of the following: active, inactive

As a guide, the following entries are already answered.
molecule: CCOc1nc(-c2ccco2)n2nc(-c3ccco3)cc2n1
answerLabel: inactive

molecule: O=C(CC1Sc2ccccc2NC1=O)NNc1cccc(Cl)c1Cl (stereo unspecified)
answerLabel: inactive

molecule: CCSc1nc(-c2cccs2)n2nc(-c3ccco3)cc2n1
answerLabel: inactive

molecule: N#Cc1c(-c2ccccc2)cc(-c2ccccc2)n(CCCCCCC(=O)O)c1=O
answerLabel: inactive

molecule: CCc1nn2c(-c3ccc(Cl)cc3C)c(-c3cc(OC)c(OC)c(OC)c3)nc2s1
answerLabel: inactive

Next item in the queue.
Name the outcome recorded for O=C1C(=O)c2c(nc3ccc(Cl)cn23)-c2ccccc21 in the assay.
active

Reference for the values: PubChem BioAssay (NCI)
